system: T-47D breast; assay: NCI-60 one-dose screen, 48 h (100 = growth as untreated, 0 = no growth, -100 = all killed); settings: 10 µM unless noted
About 83,000 compounds went through this panel and 20% of them were active in at least one assay; those are over-represented in the sample as a whole. The source made the active and inactive calls. How the source made its calls: active means growth percent below 10; inactive means the rest.
As shown below, each of these compounds has a reported growth value.

Below, 5 compounds whose answers are already recorded.
INSERT INTO measurements (compound, result) VALUES
  ('CCOc1ccc(-c2nonc2NC(=O)c2cccc(C)c2)cc1OCC', '84.3% (inactive)'),
  ('CCOC(=O)c1c(Cl)c2c(n1Cc1ccccc1)-c1oncc1CCC2', '80.7% (inactive)'),
  ('CC(C)C[C@H](C(=O)N[C@@H](C)C(N)=O)N1CC=CCN(O)S1(=O)=O', '103% [5 µM] (inactive)'),
  ('COc1ccc2c(c1)C=C1CSCC3=Cc4cc(OC)ccc4OC13O2', '48.4% (inactive)'),
  ('Cc1ccc2[nH]c(=O)cc(-n3nncc3Cn3c4ccccc4c4ccccc43)c2c1', '106% (inactive)');

Please look up its growth: CCOC(=O)c1ccc2[nH]c(-c3ccccc3)cc(=O)c2c1
105% (inactive)

Give its growth value. Item: OC(CNC1CCCCC1)Cn1c2ccc(I)cc2c2cc(I)ccc21 (stereo not given)
81.3% (inactive)

Given the entry COc1ccc(OC)c(NC(=O)/C(C#N)=C/c2ccco2)c1 , report its measured growth.
57.5% (inactive)

# lookup: growth of COc1cc(/C(C#N)=C/c2nc3c(N4CCOCC4)nc(Cl)nc3n2C)cc(OC)c1OC
33.9% (inactive)

Which growth value is on record for CCC(C)(C)C(=O)O[C@H]1C[C@@H](C)C=C2C=C[C@H](C)[C@H](CC[C@@H]3CC=CC(=O)O3)[C@H]21 ?
80.8% (inactive)

Data origin: PubChem BioAssay (NCI)
